measurement.description: protein stability index of a GFP-peptide fusion (yeast GPS) (PSI 1-4); higher = more stable; sorted into four equal gates, so the index is relative within each strain
measurement.setup: doa10∆
assay.metric: protein stability index

> print(dat)
                       sequence.entry  observed.measurement
1            SNGPRAAKKRRPAAKGK [RRP6]                  2.97
2            ETLKRDRKQSQATNATN [ARP7]                  2.69
3          ATAVAHVKAGKGLIKVN [RPS16A]                  1.66
4           NNKFANKIIPNVGLCIT [RPC25]                  2.71
5  IFALCIYNSTDSNSEIL [YML103C/NUP188]                  1.39
6   LDEMELHPYNSRGLFEK [YDL116W/NUP84]                  3.23
7            FIPHGLKRRQVIEQCYL [SRB8]                  2.78

====

Form field: protein stability index (one value per entry).
measurement.description: protein stability index of a GFP-peptide fusion (yeast GPS) (PSI 1-4); higher = more stable; sorted into four equal gates, so the index is relative within each strain
measurement.setup: pdr5∆
assay.metric: protein stability index

> print(dat)
                sequence.entry             assay.metric  observed.measurement
 1    LPTDGGLTSRLQRQQRK [POP4]  protein stability index                   3.3
 2    NKTNNEDLFDDYPSTSL [NUT1]  protein stability index                  3.09
 3    SYTFRSEKGLLSATQFT [FAS1]  protein stability index                  2.65
 4    KLLKSLLLNYLELIGVL [MED7]  protein stability index                  1.56
 5    TDGADENVQIGEDFMEV [SRB4]  protein stability index                  3.35
 6    TALALKYLIKYNVFRQH [CSI1]  protein stability index                   1.8
 7  TLGKLSTSVGWKYEDVV [RPL16B]  protein stability index                  2.42
 8    SIEMEEETDDEDKQNIE [RRI2]  protein stability index                  3.32
 9    ISDDDDSALRYSILGDR [POP4]  protein stability index                  2.97
10    NAVISHANAAAVYFADT [SIN4]  protein stability index                  2.29
11    DPALLRPGRIDRKIEFP [RPT6]  protein stability index                  3.32
12    ERLDKDKDRDTRRKRRQ [SNF5]  protein stability index                  3.27
13  KRKCGHTNQLRPKKKLK [RPL40A]  protein stability index                  2.84
14    LGSGSNVDVCVMEIGKD [PUP1]  protein stability index                  3.53
15   PPSLKIIDGPKALILAP [PRP28]  protein stability index                  1.77

====

measurement.description: protein stability index of a GFP-peptide fusion (yeast GPS) (PSI 1-4); higher = more stable; sorted into four equal gates, so the index is relative within each strain
measurement.setup: pdr5∆
assay.metric: protein stability index

> print(dat)
                        sequence.entry  observed.measurement
 1            LEDIYTSAHEAIRADPA [RPL5]                  2.98
 2           PTVSLTINLDRFMKGRR [RPC82]                  2.48
 3  DPKFVNSLLAKLKDSKK [YML103C/NUP188]                  2.86
 4           YLAHEDNKEKDFELEIS [PRE10]                  2.86
 5            PADSTYGAYNTQIANAG [PRE4]                  2.03
 6            PLSTYNKNGNAVCSTAT [PGD1]                  2.63
 7    GAGSAFGFSSSGTAATG [YOR098C/NUP1]                  3.41
 8           LNGREVKAILMQRHVKV [RPS4A]                  1.25
 9            DNVIVINHKINNKITQL [SIR3]                  2.13
10            NQNQRNVNETMSRSLAN [SMC3]                  2.65
11            LGVKNLGLCCLLDVKLA [YCG1]                  1.58
12            RQLANLIPFIVKQVLLS [NUT1]                  1.55
13            MSPFLRKVVKPSSLNSD [SRB4]                  2.87
14           AAKLRTLDYAERHGYIR [RPL2A]                  3.27
15            IESALKSKLDQDSTSEN [RPN2]                  3.04

====

measurement.description: protein stability index of a GFP-peptide fusion (yeast GPS) (PSI 1-4); higher = more stable; sorted into four equal gates, so the index is relative within each strain
measurement.setup: doa10∆
assay.metric: protein stability index

> print(dat)
                        sequence.entry  observed.measurement
 1            ETFISSMTATADVLAMA [RIP1]                  1.93
 2            LLEKYNTNELKEVSSFL [MTR3]                  3.05
 3            LYPSFKPIYKDTRFGGR [SSN2]                  3.17
 4            TIPLGGSVHKLPYAIAG [PRE3]                  2.97
 5           DDIFIRYLTLLSNEFTA [ECM29]                  2.14
 6            TKDKAKKIREIYRYDEM [BRR2]                  2.58
 7  APMRLATAALEIILKLC [YJL039C/NUP192]                   1.6
 8            LKRMEILKSPHLSKSPA [SIR4]                  2.96
 9            PKHSYLSGNPLTSVTND [SIR4]                  2.67
10           SVFYTILRDYGPQEAAN [RPO31]                  3.42
11            YHGISKNDNIKKSVNKL [POP6]                   2.7
12            TLNSRALSGLYYKNFHN [SNM1]                  2.17
13            PADSTYGAYNTQIANAG [PRE4]                   1.8
14            ELTDKLSALNSEISSLK [SMC1]                  3.15
15            SAMPAPYMPYYYYYHPM [DSN1]                   2.4

====

measurement.description: protein stability index of a GFP-peptide fusion (yeast GPS) (PSI 1-4); higher = more stable; sorted into four equal gates, so the index is relative within each strain
measurement.setup: san1∆
I would appreciate it if you labelled entries Y when protein stability index is 3 or higher, otherwise N.

> print(dat)
              sequence.entry  label.class
1   TLNSRALSGLYYKNFHN [SNM1]            N
2  PVRALIVQAKEPNLAAQ [ECM29]            N
3  DPSMDPELAMALRLSME [RPN10]            Y
4   IGTNDLFQVESAPKISS [SIR4]            N
5  LLTEELAKSGSTEETTA [TAF14]            N
6   DESLKDEATVPNTRDAE [SWI3]            Y
7   MSGGKGGKAGSAAKASQ [HTA1]            N

====

measurement.description: protein stability index of a GFP-peptide fusion (yeast GPS) (PSI 1-4); higher = more stable; sorted into four equal gates, so the index is relative within each strain
measurement.setup: doa10∆
assay.metric: protein stability index

> print(dat)
                     sequence.entry             assay.metric  observed.measurement
1         FNPQDTEENIKGETNSE [RRP45]  protein stability index                  3.36
2  NSPSSALRALQENGTIF [YDL088C/ASM4]  protein stability index                  2.13
3          HPGYDCWLSNIDIQTQD [RRI1]  protein stability index                  2.72
4        IYEVDITVHAPLLPIVE [SNU114]  protein stability index                  2.32
5         LGKKKATVDEFPLCVHL [RPL10]  protein stability index                   3.1
6          ENFSNGISLVMEIVANA [MED1]  protein stability index                  2.12
7          TKTTGKCGSVTVRLIPA [RPS2]  protein stability index                  1.34
8          AAPAAAAAEIADEPVKA [FAS2]  protein stability index                  2.55
